test system: FADU cells; test: CCK-8 cytotoxicity assay, determination of inhibitory concentrations in FADU cells; type: cell-based, human; conditions: 72 hr
Consider the following compounds; for each one, report its log10 of IC30.
The base-10 logarithm of IC30, taken with IC30 in nM, is what appears here.

Quick one: log10 of IC30 of CN1CC[C@@H](c2c(O)cc(O)c3c(=O)cc(-c4ccc(C(F)(F)F)cc4Cl)oc23)[C@@H]1CO.Cl ? 3.36

Could you share which log10 of IC30 value was measured for C#Cc1cccc(Nc2ncnc3cc(OCCOC)c(OCCOC)cc23)c1 ? 2.95

Any idea what its log10 of IC30 is? The compound is CNC(=O)c1cc(Oc2ccc(NC(=O)Nc3ccc(Cl)c(C(F)(F)F)c3)cc2)ccn1.Cc1ccc(S(=O)(=O)O)cc1 3.59

Return reported log10 of IC30; argument: O=c1[nH]cc(F)c(=O)[nH]1 3.36

Could you tell me which log10 of IC30 is on file for CS(=O)(=O)CCNCc1ccc(-c2ccc3ncnc(Nc4ccc(OCc5cccc(F)c5)c(Cl)c4)c3c2)o1 ? 2.90

Reported log10 of IC30 for CC(=O)O[C@@]12CO[C@@H]1C[C@H](O)[C@@]1(C)C(=O)[C@H](O)C3=C(C)[C@@H](OC(=O)[C@H](O)[C@@H](NC(=O)OC(C)(C)C)c4ccccc4)C[C@@](O)([C@@H](OC(=O)c4ccccc4)[C@H]21)C3(C)C : what is it? 1.78

Quick check: log10 of IC30 of CN1CC[C@@H](c2c(O)cc(O)c3c(=O)cc(-c4ccccc4Cl)oc23)[C@@H]1CO.Cl (relative stereo) ? 2.30

Quick one: log10 of IC30 of N.N.[Cl][Pt][Cl] [Cisplatin] ? 3.48

src = patent US10980776B2
